- tested_on: KCNQ2 (Homo sapiens, UniProt O43526)
- Sequence (O43526 whole entry): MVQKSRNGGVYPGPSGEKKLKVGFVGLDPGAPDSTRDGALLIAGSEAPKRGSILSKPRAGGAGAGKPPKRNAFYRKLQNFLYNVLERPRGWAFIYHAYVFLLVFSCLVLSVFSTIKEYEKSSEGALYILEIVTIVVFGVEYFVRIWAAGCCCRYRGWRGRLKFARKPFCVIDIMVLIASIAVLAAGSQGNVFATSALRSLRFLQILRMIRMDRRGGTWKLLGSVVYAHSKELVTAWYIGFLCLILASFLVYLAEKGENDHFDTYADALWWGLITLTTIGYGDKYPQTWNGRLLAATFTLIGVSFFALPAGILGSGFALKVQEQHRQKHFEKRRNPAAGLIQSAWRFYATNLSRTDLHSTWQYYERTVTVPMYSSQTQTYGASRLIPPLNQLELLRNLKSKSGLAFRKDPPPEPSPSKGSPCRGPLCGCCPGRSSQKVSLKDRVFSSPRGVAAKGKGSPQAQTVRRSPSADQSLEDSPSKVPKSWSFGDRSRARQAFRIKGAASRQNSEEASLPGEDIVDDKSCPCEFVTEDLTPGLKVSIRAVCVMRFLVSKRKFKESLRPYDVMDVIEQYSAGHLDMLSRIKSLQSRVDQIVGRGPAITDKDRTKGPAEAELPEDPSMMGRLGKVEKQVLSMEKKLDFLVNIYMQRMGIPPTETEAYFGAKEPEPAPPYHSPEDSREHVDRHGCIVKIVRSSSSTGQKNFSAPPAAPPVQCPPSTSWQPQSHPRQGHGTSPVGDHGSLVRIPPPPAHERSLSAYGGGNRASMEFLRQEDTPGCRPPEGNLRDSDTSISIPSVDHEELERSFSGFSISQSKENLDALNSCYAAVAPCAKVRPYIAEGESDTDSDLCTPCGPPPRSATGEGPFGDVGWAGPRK
- assay_info: cryo-EM structure ([…] Å); whole-cell patch clamp in CHO cells for the EC50
- Format: cell-based
- Set-up: wild-type human KCNQ2 cDNA in pcDNA5/FRT, expressed in CHO cells, whole-cell patch clamp; no CaM co-transfection stated; not the 64-674 cryo-EM construct
quantity_kind: pEC50
// returns pEC50 (minus log10 of molar concentration), number only

Ask: # get_value(readout='pEC50', item= C=C(C)[C@@H]1CCC(C)=C[C@H]1c1c(O)cc(CCCCC)cc1O [CBD, cannabidiol] )
Result: 5.35
